Target desc: Ubiquitin carboxyl-terminal hydrolase 1 (Homo sapiens)
Protocol: Inhibitors of USP1/UAF1: Pilot qHTS (AID 504865); note: nearly all actives have a fitted effect of over 35% in size
Run parameters: purified USP1/UAF1, Ub-rhodamine cleavage fluorescence; series mostly up to 114 µM
Results filed as inconclusive are left out. Calls of active or inactive are those of the source. Calls come from the whole dose curve; as a rule, active = well fitted inhibition curve with a large enough effect; inconclusive = small, poorly fitted or top-dose-only effect; inactive = flat fitted curve, though single readings scatter.
Labels: active, inactive

[[record]]
compound = "CCN(CC)CCOc1ccc(Cc2ccccc2)cc1"
qualitative_label = "inactive"

[[record]]
compound = "Nc1cccc2c1CN(C1CCC(=O)NC1=O)C2=O (configuration not stated)"
qualitative_label = "inactive"

[[record]]
compound = "CNC[C@H](O)c1ccc(O)c(O)c1"
qualitative_label = "inactive"

[[record]]
compound = "O=c1oc2cc(O)ccc2s1"
qualitative_label = "inactive"

[[record]]
compound = "O=C(CS(=O)Cc1ccco1)NCC=CCOc1cc(CN2CCCCC2)ccn1 (configuration not stated)"
qualitative_label = "inactive"

[[record]]
compound = "CCc1nc(N)nc(N)c1-c1ccc(Cl)cc1"
qualitative_label = "inactive"

[[record]]
compound = "CN1CCC(=C2c3ccccc3CCc3sccc32)CC1"
qualitative_label = "inactive"

[[record]]
compound = "Oc1ccc2ccccc2c1SSc1c(O)ccc2ccccc12"
qualitative_label = "inactive"

[[record]]
compound = "CCN(CCO)CCCC(C)Nc1ccnc2cc(Cl)ccc12 (configuration not stated)"
qualitative_label = "inactive"

[[record]]
compound = "CCCCCCCCCCCCCCCCCCCCCCO"
qualitative_label = "inactive"

[[record]]
compound = "Nc1ccn([C@@H]2O[C@H](CO)[C@@H](O)C2O)c(=O)n1 (some centres not stated)"
qualitative_label = "inactive"

[[record]]
compound = "NNc1nncc2ccccc12"
qualitative_label = "inactive"

[[record]]
compound = "Cc1ccc(S(=O)(=O)NC(=O)NN2CC3CCCC3C2)cc1 (configuration not stated)"
qualitative_label = "inactive"

[[record]]
compound = "Nc1nc(OCc2ccccc2)c2[nH]cnc2n1"
qualitative_label = "inactive"

[[record]]
compound = "CN(C)CCCC1(c2ccc(F)cc2)OCc2cc(C#N)ccc21 (configuration not stated)"
qualitative_label = "inactive"

[[record]]
compound = "C=C(c1ccc(C(=O)O)cc1)c1cc2c(cc1C)C(C)(C)CCC2(C)C"
qualitative_label = "active"

[[record]]
compound = "CN(C)C(=O)COC(=O)Cc1ccc(OC(=O)c2ccc(N=C(N)N)cc2)cc1"
qualitative_label = "inactive"

[[record]]
compound = "O=Nc1c(-c2c(O)[nH]c3cc(Br)ccc23)[nH]c2ccccc12"
qualitative_label = "inactive"

[[record]]
compound = "C[C@H](Cn1cnc2c(N)ncnc21)OCP(=O)(O)O"
qualitative_label = "inactive"

[[record]]
compound = "CC1(C)C(=O)N(CCN2CCC(C(=O)c3ccc(F)cc3)CC2)c2ccccc21"
qualitative_label = "inactive"

[[record]]
compound = "Cc1nc(Nc2ncc(C(=O)Nc3c(C)cccc3Cl)s2)cc(N2CCN(CCO)CC2)n1"
qualitative_label = "inactive"

[[record]]
compound = "CC(=O)O[C@H]1C(=O)[C@@]2(C)C([C@H](OC(=O)c3ccccc3)[C@]3(O)C[C@H](OC(=O)[C@H](O)[C@@H](NC(=O)c4ccccc4)c4ccccc4)C(C)=C1C3(C)C)[C@]1(OC(C)=O)CO[C@@H]1C[C@@H]2O (some centres not stated)"
qualitative_label = "inactive"

[[record]]
compound = "CC(C)(S)[C@@H](N)C(=O)O"
qualitative_label = "inactive"

[[record]]
compound = "Nc1nc(N)c(N=O)c(OCC2CCCCC2)n1"
qualitative_label = "inactive"

[[record]]
compound = "COc1cc2c(cc1OC)C1CC(=O)C(CC(C)C)CN1CC2 (configuration not stated)"
qualitative_label = "inactive"

[[record]]
compound = "Nc1nc(Cl)nc2c1ncn2[C@H]1C[C@H](O)[C@@H](CO)O1"
qualitative_label = "inactive"

[[record]]
compound = "CCOC(=O)c1c(C)n(C)c2ccc(O)cc12"
qualitative_label = "inactive"


====

Protocol: Quantitative High-Throughput drug screen in 47 multiple myeloma cell lines against the NCATS MIPE library collection: JIM3_ECACC cell viability assay (AID 1918963; note: nearly all actives have a fitted effect of over 35% in size)
Run parameters: JIM3 myeloma viability, CellTiter-Glo ATP, 48 h; series mostly up to 45.8 µM
Results filed as inconclusive are left out. The source made the active and inactive calls. Calls come from the whole dose curve; as a rule, active = well fitted cell-killing curve with a large enough effect; inconclusive = small, poorly fitted or top-dose-only effect; inactive = no such curve, though single readings can be large or run the other way.
Labels: active, inactive

[[record]]
compound = "CN1C(C(=O)Nc2ccccn2)=C(O)c2sccc2S1(=O)=O"
qualitative_label = "inactive"

[[record]]
compound = "NS(=O)(=O)c1cc(C(=O)O)c(NCc2ccco2)cc1Cl"
qualitative_label = "inactive"

[[record]]
compound = "CCCc1cc(=O)[nH]c(=S)[nH]1"
qualitative_label = "inactive"

[[record]]
compound = "Cc1cc(=O)oc2cc(O)ccc12"
qualitative_label = "inactive"

[[record]]
compound = "Nc1nc(Cl)nc2c1ncn2[C@H]1C[C@H](O)[C@@H](CO)O1"
qualitative_label = "active"

[[record]]
compound = "CC(=O)NC[C@H]1CN(c2ccc(N3CCOCC3)c(F)c2)C(=O)O1"
qualitative_label = "inactive"

[[record]]
compound = "CC(C)[N+]1(C)[C@@H]2CC[C@H]1CC(OC(=O)C(CO)c1ccccc1)C2 (some centres undefined)"
qualitative_label = "inactive"

[[record]]
compound = "O=C(OC1C[C@H]2CC[C@@H](C1)[N+]21CCCC1)C(O)(c1ccccc1)c1ccccc1 (some centres undefined)"
qualitative_label = "inactive"

[[record]]
compound = "O=C(O)c1cc(=O)c2c(OCC(O)COc3cccc4oc(C(=O)O)cc(=O)c34)cccc2o1"
qualitative_label = "inactive"

[[record]]
compound = "COc1c(O)cc2c(c1O)[C@@H]1O[C@H](CO)[C@@H](O)[C@H](O)[C@H]1OC2=O"
qualitative_label = "inactive"

[[record]]
compound = "N=C(N)c1ccc2cc(OC(=O)c3ccc(N=C(N)N)cc3)ccc2c1"
qualitative_label = "inactive"

[[record]]
compound = "O=C(NOCC1CC1)c1ccc(F)c(F)c1Nc1ccc(I)cc1Cl"
qualitative_label = "active"

[[record]]
compound = "Cc1cccc(C#Cc2ccccc2)n1"
qualitative_label = "inactive"

[[record]]
compound = "COC(=O)N[C@H](C(=O)N[C@@H](Cc1ccccc1)[C@@H](O)CN(Cc1ccc(-c2ccccn2)cc1)NC(=O)[C@@H](NC(=O)OC)C(C)(C)C)C(C)(C)C"
qualitative_label = "inactive"

[[record]]
compound = "O=P(O)(O)C(O)(Cn1ccnc1)P(=O)(O)O"
qualitative_label = "inactive"

[[record]]
compound = "Oc1ccc(OCc2ccccc2)cc1"
qualitative_label = "inactive"

[[record]]
compound = "COc1cc(Nc2c(C#N)cnc3cc(OCCCN4CCN(C)CC4)c(OC)cc23)c(Cl)cc1Cl"
qualitative_label = "active"

[[record]]
compound = "NC(=O)Cc1cccc(C(=O)c2ccccc2)c1N"
qualitative_label = "inactive"

[[record]]
compound = "O=C(O)CCNC(=O)c1ccc(N=Nc2ccc(O)c(C(=O)O)c2)cc1"
qualitative_label = "inactive"

[[record]]
compound = "O=C(O)c1cn(-c2ccc(F)cc2)c2cc(N3CCNCC3)c(F)cc2c1=O"
qualitative_label = "inactive"

[[record]]
compound = "CCOc1cc(CC(=O)N[C@@H](CC(C)C)c2ccccc2N2CCCCC2)ccc1C(=O)O"
qualitative_label = "inactive"

[[record]]
compound = "Cc1cccc(C)c1OCC(=O)N[C@@H](Cc1ccccc1)[C@@H](O)C[C@H](Cc1ccccc1)NC(=O)[C@H](C(C)C)N1CCCNC1=O"
qualitative_label = "active"

[[record]]
compound = "Cc1nc2n(c(=O)c1CCN1CCC(c3noc4cc(F)ccc34)CC1)CCCC2"
qualitative_label = "inactive"

[[record]]
compound = "C[Se]CCC(N)C(=O)O (centres undefined)"
qualitative_label = "inactive"

[[record]]
compound = "CN(C)CCc1c[nH]c2ccc(Cn3cncn3)cc12"
qualitative_label = "inactive"

[[record]]
compound = "CC(C)c1ccc2oc3nc(N)c(C(=O)O)cc3c(=O)c2c1"
qualitative_label = "inactive"

[[record]]
compound = "Cc1cc(O)c2c(c1)C(=O)c1cc(O)cc(O)c1C2=O"
qualitative_label = "inactive"

[[record]]
compound = "O=C(O)c1cccc(-c2noc(-c3ccccc3F)n2)c1"
qualitative_label = "inactive"

[[record]]
compound = "N=C(N=C(N)N)N1CCOCC1"
qualitative_label = "inactive"

[[record]]
compound = "CCC(C)(Oc1ccc(C2(c3ccc(OC(C)(CC)C(=O)O)cc3)CCCCC2)cc1)C(=O)O (centres undefined)"
qualitative_label = "inactive"

[[record]]
compound = "CC(=O)O[C@H]1C(=O)[C@@]2(C)C([C@H](OC(=O)c3ccccc3)[C@]3(O)C[C@H](OC(=O)[C@H](O)[C@@H](NC(=O)c4ccccc4)c4ccccc4)C(C)=C1C3(C)C)[C@]1(OC(C)=O)CO[C@@H]1C[C@@H]2O (some centres undefined)"
qualitative_label = "inactive"

[[record]]
compound = "C=CCc1cc(OC)c(O)c(C(=O)NCCO)c1"
qualitative_label = "inactive"

[[record]]
compound = "CS(=O)(=O)OCCCCOS(C)(=O)=O"
qualitative_label = "inactive"

[[record]]
compound = "S=c1nc[nH]c2nc[nH]c12"
qualitative_label = "active"

[[record]]
compound = "C[C@]12CCC(=O)C=C1CC[C@@H]1[C@H]2[C@@H](O)C[C@@]2(C)[C@H]1CC[C@]2(O)C(=O)CO"
qualitative_label = "inactive"

[[record]]
compound = "Cc1cc(=O)c2c(O)c3c(O)cc(=O)c4c3c3c(cc(O)c1c23)C(C)(C)C=4O"
qualitative_label = "active"

[[record]]
compound = "Nc1cccc2c1CN(C1CCC(=O)NC1=O)C2=O (centres undefined)"
qualitative_label = "inactive"

[[record]]
compound = "COCCCOc1ccnc(CS(=O)c2nc3ccccc3[nH]2)c1C (centres undefined)"
qualitative_label = "inactive"

[[record]]
compound = "CC(C)Oc1ccc2c(=O)c(-c3ccccc3)coc2c1"
qualitative_label = "inactive"

[[record]]
compound = "Nc1cc(C(Cl)=C(Cl)Cl)c(S(N)(=O)=O)cc1S(N)(=O)=O"
qualitative_label = "inactive"

[[record]]
compound = "O=Nc1c(-c2c(O)[nH]c3cc(Br)ccc23)[nH]c2ccccc12"
qualitative_label = "active"

[[record]]
compound = "CC(C)C[C@H](NC(=O)[C@H](Cc1ccccc1)NC(=O)c1cnccn1)B(O)O"
qualitative_label = "active"

[[record]]
compound = "NNc1nncc2ccccc12"
qualitative_label = "inactive"

[[record]]
compound = "C[C@@H](c1ncncc1F)[C@](O)(Cn1cncn1)c1ccc(F)cc1F"
qualitative_label = "inactive"

